Data credit: paper PMC10974505

# EXPERIMENTAL_PROTOCOL: MTT tolerability assay, noncancerous H69 cholangiocytes
# Format: cell-based, human
# TEST_SETTINGS: human, SV40-immortalized H69 cholangiocytes (noncancerous); 50 µg/mL; read-out: lowering of H69 cell viability
MEASURED_QUANTITY: cytotoxicity at 24 h, 50 µg/mL (%)
Write the number in % without appending the unit.

# get_value(readout='cytotoxicity at 24 h, 50 µg/mL', item= COC(=O)c1c(C)cc(O)cc1O [Compound 2, methyl orsellinate] )
60
